- test_details: in vitro
- conditions: human, hek293t cells
Rule: measured viability at 48 h, 25 µM below 70% gets True; anything equal to or greater than 70% gets False.

>>> class_name("O=C(CCl)c1cc(Cl)sc1Cl [10-D16]")
"True"
>>> class_name("C=CC(=O)N(C)CC(=O)NCc1c(O)nnc(C)c1C [2-I20]")
"False"
>>> class_name("COc1ccc(C=C(C#N)C(=O)NCc2ccccc2)cc1O [8-C09]")
"True"
>>> class_name("COc1ccccc1N1C(=O)C=CC1=O [10-O10]")
"True"
>>> class_name("CSc1ccccc1NC(=O)C(C)Cl (stereo not drawn) [4-M12]")
"False"
>>> class_name("CCn1c2ccccc2c2cc(NC(=O)CCl)ccc21 [4-D06]")
"True"

---

- test_details: in vitro
- conditions: human, hek293t cells
quantity_measured: viability at 48 h, 25 µM

>>> result("O=C(CCl)NCCc1nc2c(s1)CCCCC2 [4-J21]")
"15%"
>>> result("O=C(CCl)Nc1ccc(N=Nc2ccccc2)cc1 [4-C11]")
"0.339%"
>>> result("C=CC(=O)NCCC(=O)N1CCSC(C)(C)C1 [3-G18]")
"101%"
>>> result("CC(C)NC(=O)C(C#N)=Cc1ccc(Cl)c([N+](=O)[O-])c1 [8-J08]")
"0.544%"
>>> result("CC(Cl)C(=O)Nc1cccc(Cl)c1 (centres unmarked) [5-H22, 2-chloro-N-(3-chlorophenyl)propanamide]")
"78%"
>>> result("O=C(CCl)NC1CCCCCC1 [5-H16, 2-chloro-N-cycloheptylacetamide]")
"17.7%"
>>> result("Cc1nc(C#N)c(N2CCN(C(=O)CCl)CC2)o1 [5-L18]")
"1.74%"
>>> result("C=CC(=O)NCCc1nccs1 [3-M20]")
"89.6%"
>>> result("N#CC(=Cc1csnn1)C(=O)Nc1ccc(Oc2ccccc2)cc1 [8-M12]")
"43%"
>>> result("C=CC(=O)N1Cc2cnn(C)c2C1 [3-P14]")
"87.3%"
>>> result("CC(=O)N(c1ccc(C)c(C)c1)c1nc(C=C(C#N)C(N)=O)cs1 [8-M16]")
"85.9%"
>>> result("CC(Cl)C(=O)NCCC1(C)OCCO1 (centres unmarked) [7-E17]")
"82.4%"
>>> result("C=CC(=O)Nc1cnn(-c2ccccc2)c1C(F)F [3-I03]")
"41.7%"
>>> result("Cn1ncc(C(=O)CCl)n1 [10-J10]")
"85.5%"
>>> result("Cc1cccc(N2C(=O)C=CC2=O)c1C [10-H05]")
"94.3%"
>>> result("CC(Cl)C(=O)N1CC(=O)Nc2ccccc21 (centres unmarked) [6-E07]")
"117%"
>>> result("C=CC(=O)Nc1ccc(C(=O)N2CCC(S(=O)(=O)NC)C2)cc1 (centres unmarked) [3-O08]")
"95.4%"
>>> result("O=C(CCl)NCCC1=CCCCC1 [4-H05]")
"20.9%"
>>> result("C=CC(=O)N1CCC(C(=O)NCc2ncccc2OC)CC1 [3-H05]")
"73.5%"
>>> result("O=C(CCl)Cc1cccc(F)c1F [10-K17]")
"33.7%"
>>> result("C=CC(=O)NCC(C)Cn1ccc(C)n1 (centres unmarked) [2-D03]")
"99.9%"
>>> result("C=CC(=O)Nc1ccc(C(=O)N[C@H]2COC[C@@H]2OC)cc1 (racemic) [3-C08]")
"85.1%"
>>> result("O=C(CCl)Cc1ccc(F)cc1 [10-G15, 1-chloro-3-(4-fluorophenyl)propan-2-one]")
"73.7%"
